target.of.assay: Tau
experiment: rat primary cortical neurons, FLIPR, 25 uM ASO
Bases are written 5' to 3'; sugars and linkages follow in the same order, as letters with counts (s phosphorothioate, o phosphodiester; PS: all linkages phosphorothioate). The collection does not say whether C is 5-methylated. l = locked nucleic acid (LNA); d = 2'-deoxy (DNA)
Some sequences, each annotated with its measured calcium oscillation score.
reported.metric: calcium oscillation score

{"biosequence": "CATTTTCTGACTCTAAT (sugars l4 d9 l4, PS)", "reported.metric": "calcium oscillation score", "result.value": "57.8 % of control"}
{"biosequence": "TCAGCTCTTCCATAAGCAGG (sugars l3 d14 l3, PS)", "reported.metric": "calcium oscillation score", "result.value": "38.5 % of control"}
{"biosequence": "TAGCAGAGGAACGTGT (sugars l3 d10 l3, PS)", "reported.metric": "calcium oscillation score", "result.value": "40.7 % of control"}
{"biosequence": "GGCATGATTGTGGGC (sugars l3 d9 l3, PS)", "reported.metric": "calcium oscillation score", "result.value": "5.22 % of control"}
{"biosequence": "TAACCAATTAACCGAACTGC (sugars l3 d14 l3, PS)", "reported.metric": "calcium oscillation score", "result.value": "125 % of control"}
{"biosequence": "CCCGAGCCAAAGCC (sugars l3 d8 l3, PS)", "reported.metric": "calcium oscillation score", "result.value": "52.2 % of control"}
